Biological target: SALL4 ZFC4 WT (HT-SELEX) (Mus musculus, UniProt Q8BX22 870-940)
Sequence: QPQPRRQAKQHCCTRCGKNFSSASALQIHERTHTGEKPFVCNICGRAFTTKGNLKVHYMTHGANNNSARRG
Assay: HT-SELEX; high values mean tight binding
Details: protein: recombinant; vector His6-GST; dsDNA, one strand shown
metric: binding signal
Put your answer as a value accompanied by its unit after it.

Some solved cases for reference:
CGGGTA    0.363 fold-change vs cycle 0
CTGGGA    0.455 fold-change vs cycle 0

Query: Which value of binding signal has been reported for CATCTA in the records?
Reply: 1.33 fold-change vs cycle 0

Query: Next up: TAACGA
Reply: 1.27 fold-change vs cycle 0

Query: Please do the same for GCTACA as well.
Reply: 0.6 fold-change vs cycle 0

Query: Then what about the sequence ATGGGA ?
Reply: 0.904 fold-change vs cycle 0
